Value source: ChEMBL document CHEMBL1201862

- System: PC-3
- EXPERIMENT: NCI tumour cell line growth inhibition, 48 h
The source made the active and inactive calls. Cut-off read from the data, not from the text of the source: active = GI50 up to about 1.1 µM and inactive = higher.
Classes used: 1 = active, 0 = inactive

{"columns": ["COMPOUND", "CATEGORY_LABEL"],
 "data": [
  ["O=C(Nc1cccc(NC(=O)C(=O)C2CCC3=C(Sc4ccccc4N3)C2=O)n1)C(=O)C1CCC2=C(Sc3ccccc3N2)C1=O (stereo not drawn)", 0],
  ["C=C1C(=O)O[C@H]2[C@H]([C@H](C)CCCC(C)=O)O[C@H]([C@@]3(C)CCC(=O)O3)C[C@@H]12", 0],
  ["CC1(C)CCC[C@](C)([C@H]2CC[C@]3(C)[C@@H]2[C@H](O)C[C@@H]2[C@@]4(C)CC[C@H](O)C(C)(C)[C@@H]4[C@H](O)C[C@]23C)O1", 0],
  ["O=C(Nc1ccccc1C(=O)NCCCO)/C(=C/c1ccccc1O)NC(=O)c1ccccc1", 0],
  ["CCc1ccc(CCC(=O)O)nc1", 0],
  ["COc1cc(C=O)cc(/C=N/n2c3ccccc3c3ccccc32)c1O", 0],
  ["NS(=O)(=O)c1ccc(N2C(=O)C(=O)N(c3ccccc3)C2=S)cc1", 0],
  ["O=[N+]([O-])c1ccc(NN=C2CN3CCN(C2)c2ccccc23)c([N+](=O)[O-])c1", 0],
  ["COc1cc(C2c3cc4c(cc3[C@@H](Nc3ccc(N)cc3)C3COC(=O)[C@H]23)OCO4)cc(OC)c1O (stereo partly drawn)", 1],
  ["CC1(C)CN(c2ccccc2)C(=O)C1OC(=O)[C@@]1(C)C[C@@H]2C=C[C@H]1C2 (stereo partly drawn)", 0],
  ["Cc1ccc(C2SC(=N)Nc3c2c(C)nn3C(=O)c2ccccc2O)cc1 (stereo not drawn)", 0],
  ["Fc1nc(Sc2ncnc3nc[nH]c23)nc(-c2c3ccccc3c3sc4ccccc4n23)n1", 0],
  ["CCCCCCc1cc2cc(C(=O)Nc3cccc(F)c3)c(=N)oc2cc1O", 0]
]}

----------
- System: CCRF-CEM
- EXPERIMENT: NCI tumour cell line growth inhibition, 48 h
Active and inactive are the calls of the source. No stated cut-off is given here; in the data, active = GI50 up to about 1.1 µM and inactive = higher.

{"columns": ["MOLECULE", "GI50"],
 "data": [
  ["Cc1cccc(C(C)(C)C)c1NC(=O)C(=O)C(c1cnc2ccccc2n1)[N+](=O)[O-] (centres undefined)", "32.1 µM (inactive)"],
  ["C(=C\\c1ccc2ccccc2c1Nc1ccccc1)/c1ccccc1", "11.9 µM (inactive)"],
  ["CCOC(=O)CCN1C(=O)c2c(NC(=O)C(=O)O)cccc2S1(=O)=O", "> 100 µM (inactive)"],
  ["CCP(=O)(CC)C(Cl)(Cl)C(O)C(Cl)(Cl)Cl (centres undefined)", "> 100 µM (inactive)"],
  ["C=C(C)CNC(=S)N(N)c1ccc2ccccc2c1", "95.3 µM (inactive)"],
  ["CCc1c(-c2ccc(OC)cc2)oc(OC)c(C)c1=O", "41 µM (inactive)"],
  ["COc1cc2cccc(N)c2cc1OC", "> 80.5 µM (inactive)"],
  ["CC(=O)OC1COC(N2c3ccccc3[C@@H]3CCc4c([nH]c5ccccc45)[C@@H]32)C(OC(C)=O)C1OC(C)=O.CC(=O)OC1COC(N2c3ccccc3[C@H]3CCc4c([nH]c5ccccc45)[C@H]32)C(OC(C)=O)C1OC(C)=O (some centres undefined)", "26.5 µM (inactive)"],
  ["N#Cc1c(C#N)c(SSc2c(C#N)c(C#N)c(N)n2-c2cccc3ccccc23)n(-c2cccc3ccccc23)c1N", "1.97 µM (inactive)"]
]}

----------
- System: NCI-H23
- EXPERIMENT: NCI tumour cell line growth inhibition, 48 h
The source made the active and inactive calls. No stated cut-off is given here; in the data, active = GI50 up to about 1.1 µM and inactive = higher.
Each record here notes measured GI50.

{"columns": ["COMPOUND", "GI50"],
 "data": [
  ["N#CCCC[Si]12OCCN(CCO1)CCO2", "> 100 µM (inactive)"],
  ["O=C1c2ccc3c4ccccc4n(-c4ccccc4)c3c2C(=O)N1c1ccc(Cl)cc1", "8.95 µM (inactive)"],
  ["Cc1coc2c1CC1(C)C(CCC(O)C1C)C2 (centres undefined)", "> 100 µM (inactive)"],
  ["CN(C)CCCNC(=O)c1cc(NC(=O)c2cc(NC(=O)c3cc(NC(=O)CCCn4ccc(CO)c4CO)cn3C)cn2C)cn1C", "13.8 µM (inactive)"],
  ["C[C@]12[C@@H]3CC[C@H]1[C@@H](OC(=O)Nc1cc([N+](=O)[O-])cc([N+](=O)[O-])c1)C(=O)N2CC3", "> 100 µM (inactive)"],
  ["CC(C)NC(=O)OCc1c(COC(=O)NC(C)C)c(-c2ccc(Cl)c(Cl)c2)n2c1CCC2", "46.9 µM (inactive)"],
  ["O=C(NN1C(=O)c2ccccc2C1=O)c1ccccc1Nc1ccccc1C(=O)NN1C(=O)c2ccccc2C1=O", "> 100 µM (inactive)"],
  ["C(=C\\c1cccs1)/c1cccc(/C=C/c2cccs2)n1", "> 100 µM (inactive)"],
  ["CC(C)=CC1C(C(=O)OCc2cc3c(cc2Cl)OCO3)C1(C)C (centres undefined)", "25.8 µM (inactive)"]
]}

----------
- System: HOP-92
- EXPERIMENT: NCI tumour cell line growth inhibition, 48 h
The source made the active and inactive calls. No stated cut-off is given here; in the data, active = GI50 up to about 1.1 µM and inactive = higher.
Each entry below carries its recorded GI50.

{"columns": ["COMPOUND", "GI50"],
 "data": [
  ["C(=C\\c1ccc2ccccc2c1Nc1ccccc1)/c1ccccc1", "18.2 µM (inactive)"],
  ["CCC(=O)N1C(=S)SC[C@H]1C(=O)OC", "> 100 µM (inactive)"],
  ["N#Cc1c(C#N)c(SSc2c(C#N)c(C#N)c(N)n2-c2cccc3ccccc23)n(-c2cccc3ccccc23)c1N", "4.71 µM (inactive)"],
  ["CC(=O)OCC1OC(OCc2ccccc2)C(Br)C(OC(C)=O)C1OC(C)=O (stereo not given)", "> 100 µM (inactive)"],
  ["CSc1ccc(-c2cc(-c3nc4ccccc4[nH]3)nc(N)c2C#N)cc1", "8.55 µM (inactive)"],
  ["CCN(CC)CCOC(=O)/C(=C/c1ccc(OC)cc1)c1cc(OC)c(OC)c(OC)c1", "3.27 µM (inactive)"],
  ["CC1(C)CC(N(C(=O)/C=C/c2ccc([N+](=O)[O-])o2)C2CCCCC2)CC(C)(C)N1", "3.65 µM (inactive)"],
  ["Cc1ccc(Nc2nc3ccccc3c(=O)n2N)cc1", "> 100 µM (inactive)"],
  ["CSC1NNC2(C(=O)N1)c1ccccc1-c1ccccc12 (stereo not given)", "> 10 µM (inactive)"],
  ["O=C1c2cccc3cc([N+](=O)[O-])cc(c23)C(=O)N1NC1=NCCN1", "> 100 µM (inactive)"]
]}

----------
Recorded below: GI50, system HCT-15.

{"columns": ["COMPOUND", "GI50"],
 "data": [
  ["O=C1CN(/N=C/c2ccc(-c3ccc(F)cc3)o2)C(=O)N1", "39 µM"],
  ["CSC1=C(C#N)C(=S)N=C(N)C1C(=O)Nc1ccc(C)cc1 (stereo unspecified)", "> 100 µM"],
  ["CCN(CC)CCOC(=O)/C(=C/c1ccc(OC)cc1)c1cc(OC)c(OC)c(OC)c1", "4.82 µM"],
  ["Cc1c(C)c2c(c(N)c1C#N)C(=O)N(NC(=O)c1ccccc1)C2=O", "> 100 µM"],
  ["CCc1cccc(C)c1NC(=O)NS(=O)(=O)c1ccc(C)cc1", "> 100 µM"],
  ["c1ccc(CCN2CCCCCC2)nc1", "> 100 µM"],
  ["COC(=O)[C@H]1[C@@H](C(C)C)O[C@@H](C(C)C)O[C@H]1C(F)(F)F", "> 100 µM"],
  ["CC(C)C1OC(=O)C(Cc2ccccc2)N(C)C(=O)C(C(C)C)OC(=O)C(Cc2ccccc2)N(C)C(=O)C(C(C)C)OC(=O)C(Cc2ccccc2)N(C)C1=O (stereo unspecified)", "0.891 µM"],
  ["Cc1ccc(Nc2nc3ccccc3c(=O)n2N)cc1", "> 100 µM"],
  ["Cn1cccc(C(=O)c2ccccc2)c1=O", "> 100 µM"],
  ["COc1ccccc1C(=O)N(C)c1ccc(Cl)c(C(=O)OC(C)C)c1", "39.5 µM"],
  ["Cc1nc(Cl)c(C)c(Cl)n1", "> 63.4 µM"],
  ["Cc1nn(C(=O)c2ccccc2O)c2c1C(c1ccc3ccccc3c1O)SC(=N)N2 (stereo unspecified)", "4.26 µM"],
  ["COc1cc(OC)cc(OCc2nc3cc(C(F)(F)F)ccc3nc2-c2ccccc2)c1", "> 100 µM"],
  ["COc1cc(C23OCC(Cc4cc5c(cc42)OCO5)C3CO)cc(OC)c1OC (stereo unspecified)", "0.538 µM"],
  ["CCP(=O)(CC)C(Cl)(Cl)C(O)C(Cl)(Cl)Cl (stereo unspecified)", "> 100 µM"],
  ["C/C(=C/CC[C@](C)(OC1OC(CO)C(O)C(O)C1O)[C@H]1CC[C@]2(C)[C@@H]1CC[C@@H]1[C@@]3(C)CC[C@H](O)C(C)(C)[C@@H]3C[C@H](O)[C@]12CO)CO (stereo partly specified)", "> 100 µM"],
  ["CN(C)CCNC(=O)c1cccc2ncc(-c3ccccc3)nc12", "5.37 µM"],
  ["CC(=O)O[C@H]1CSC[C@@H](OC(C)=O)C1[N+](=O)[O-] (stereo partly specified)", "30.1 µM"],
  ["CSc1nc2c(c(O)c(C)c(=O)n2C2OC(COC(C)=O)C(OC(C)=O)C(OC(C)=O)C2OC(C)=O)c(=O)n1C (stereo unspecified)", "> 100 µM"],
  ["Cc1c(C)c(C)c(CC2(C)CSC2)c(CC2(C)CSC2)c1C", "> 100 µM"]
]}
